biological target: AR protein in VCaP cells (Homo sapiens, UniProt P10275); construct: endogenous in cells; host or cells: VCaP cells; assay: VCAP AR Degradation Assay (AR ELISA, 24 h); assay type: cell-based; conditions: AR degradation efficiency
metric.name: Y (lowest measured AR level normalized to DMSO control)

{"columns": ["compound", "test.target", "result"],
 "data": [
  ["CCc1cc(N2C(=S)N(c3ccc(C#N)c(C(F)(F)F)c3)C(=O)C2(C)C)ccc1OCC[C@@H]1CCN(CC(=O)Nc2cccc(NC3CCC(=O)NC3=O)c2)[C@H](C)C1 (stereo partly shown) [Cmpd 71]", "AR protein in VCaP cells (Homo sapiens, UniProt P10275)", "* (0<Y<=25%)"],
  ["CCc1cc(N2C(=S)N(c3cnc(C#N)c(C(F)(F)F)c3)C(=O)C2(C)C)ccc1OCCC1CCN(CC(=O)Nc2cc(C#N)cc(NC3CCC(=O)NC3=O)c2)CC1 (stereo not shown) [Cmpd 39]", "AR protein in VCaP cells (Homo sapiens, UniProt P10275)", "** (25%<Y<=35%)"],
  ["CCc1cc(N2C(=S)N(c3cnc(C#N)c(C(F)(F)F)c3)C(=O)C2(C)C)ccc1OCCC1(C)CCN(CC(=O)Nc2cc(Cl)cc(NC3CCC(=O)NC3=O)c2)CC1 (stereo not shown) [Cmpd 64]", "AR protein in VCaP cells (Homo sapiens, UniProt P10275)", "* (0<Y<=25%)"],
  ["CCc1cc(N2C(=S)N(c3ccc(C#N)c(C(F)(F)F)c3)C(=O)C23CCC3)ccc1OCCC1CCN(CC(=O)Nc2cc(Cl)cc(NC3CCC(=O)NC3=O)c2)CC1 (stereo not shown) [Cmpd 28]", "AR protein in VCaP cells (Homo sapiens, UniProt P10275)", "* (0<Y<=25%)"],
  ["CCc1cc(N2C(=S)N(c3cnc(C#N)c(C(F)(F)F)c3)C(=O)C23CCC3)ccc1OCC[C@H]1C[C@H]2CC[C@@H](C1)N2CC(=O)Nc1cccc(NC2CCC(=O)NC2=O)c1 (single isomer, unassigned) [Cmpd 67]", "AR protein in VCaP cells (Homo sapiens, UniProt P10275)", "** (25%<Y<=35%)"],
  ["CCc1cc(N2C(=S)N(c3cnc(C#N)c(C(F)(F)F)c3)C(=O)C2(C)C)ccc1OCCC1CCN([C@@H](C)C(=O)Nc2cc(Cl)cc(NC3CCC(=O)NC3=O)c2)CC1 (stereo partly shown) [Cmpd 23]", "AR protein in VCaP cells (Homo sapiens, UniProt P10275)", "* (0<Y<=25%)"],
  ["CC1(C)C(=O)N(c2ccc(C#N)c(C(F)(F)F)c2)C(=S)N1c1ccc(OCCC2CCN(CC(=O)Nc3cccc(NC4CCC(=O)NC4=O)c3)CC2)c(F)c1 (stereo not shown) [Cmpd 3]", "AR protein in VCaP cells (Homo sapiens, UniProt P10275)", "** (25%<Y<=35%)"],
  ["C[C@@H](C(=O)Nc1cccc(NC2CCC(=O)NC2=O)c1)N1CCC(CCOc2ccc(N3C(=S)N(c4cnc(C#N)c(C(F)(F)F)c4)C(=O)C3(C)C)cc2CCF)CC1 (stereo partly shown) [Cmpd 73]", "AR protein in VCaP cells (Homo sapiens, UniProt P10275)", "* (0<Y<=25%)"],
  ["CCc1cc(N2C(=S)N(c3ccc(C#N)c(C(F)(F)F)c3)C(=O)C23CCC3)ccc1OCCC1CCN([C@H](C)C(=O)Nc2cc(Cl)cc(NC3CCC(=O)NC3=O)c2)CC1 (stereo partly shown) [Cmpd 31]", "AR protein in VCaP cells (Homo sapiens, UniProt P10275)", "* (0<Y<=25%)"],
  ["CC1(C)C(=O)N(c2ccc(C#N)c(C(F)(F)F)c2)C(=S)N1c1ccc(OC2CCN(CC(=O)Nc3cccc(NC4CCC(=O)NC4=O)c3)CC2)c(F)c1 (stereo not shown) [Cmpd 1]", "AR protein in VCaP cells (Homo sapiens, UniProt P10275)", "** (25%<Y<=35%)"]
]}

###

Target: AR protein in VCaP cells (Homo sapiens)
Construct: endogenous in cells; host or cells: VCaP cells
Sequence (P10275 1-920): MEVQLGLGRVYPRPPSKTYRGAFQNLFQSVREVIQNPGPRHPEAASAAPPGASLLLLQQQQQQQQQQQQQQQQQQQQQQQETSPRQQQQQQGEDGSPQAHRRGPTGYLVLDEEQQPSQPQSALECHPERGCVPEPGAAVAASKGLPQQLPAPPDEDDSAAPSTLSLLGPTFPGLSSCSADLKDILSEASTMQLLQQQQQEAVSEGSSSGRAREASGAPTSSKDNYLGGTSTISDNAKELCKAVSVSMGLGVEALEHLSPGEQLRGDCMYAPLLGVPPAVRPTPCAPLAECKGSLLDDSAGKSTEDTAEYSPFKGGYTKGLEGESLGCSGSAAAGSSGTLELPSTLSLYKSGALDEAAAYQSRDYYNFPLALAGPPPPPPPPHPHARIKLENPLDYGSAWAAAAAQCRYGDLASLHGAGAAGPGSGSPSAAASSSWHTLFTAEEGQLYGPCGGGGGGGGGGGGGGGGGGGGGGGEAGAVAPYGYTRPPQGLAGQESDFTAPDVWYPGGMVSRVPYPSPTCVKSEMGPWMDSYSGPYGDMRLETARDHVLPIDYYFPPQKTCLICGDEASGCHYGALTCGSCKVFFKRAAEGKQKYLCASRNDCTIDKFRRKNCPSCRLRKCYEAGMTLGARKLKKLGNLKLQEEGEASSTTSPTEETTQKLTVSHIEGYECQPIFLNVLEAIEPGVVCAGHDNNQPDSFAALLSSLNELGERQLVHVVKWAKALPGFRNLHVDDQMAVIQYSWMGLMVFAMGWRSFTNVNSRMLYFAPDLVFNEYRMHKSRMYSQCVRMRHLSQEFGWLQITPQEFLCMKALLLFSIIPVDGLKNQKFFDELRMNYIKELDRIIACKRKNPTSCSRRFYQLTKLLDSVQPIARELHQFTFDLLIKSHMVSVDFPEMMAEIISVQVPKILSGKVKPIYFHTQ
Assay: VCAP AR Degradation Assay (AR ELISA, 24 h)
Format: cell-based
Conditions: concentration of compound when AR level = 50% of DMSO control, read-out: DC50

{"columns": ["compound", "DC50"],
 "data": [
  ["CCc1cc(N2C(=S)N(c3cnc(C#N)c(C(F)(F)F)c3)C(=O)C2(C)C)ccc1OCCC1CCN(CC(=O)Nc2cc(NC3CCC(=O)NC3=O)ccc2Cl)CC1 (stereo not shown)", "100 to 500 nM"],
  ["CCc1cc(N2C(=S)N(c3cnc(C#N)c(C(F)(F)F)c3)C(=O)C23CCC3)ccc1OCCC1CCN([C@@H](C)C(=O)Nc2cccc(NC3CCC(=O)NC3=O)c2)CC1 (stereo partly shown)", "< 100 nM"],
  ["CCc1cc(N2C(=S)N(c3cnc(C#N)c(C(F)(F)F)c3)C(=O)C23CCC3)ccc1OCCC1CCN(CC(=O)Nc2cc(NC3CCC(=O)NC3=O)ccc2F)CC1 (stereo not shown)", "100 to 500 nM"],
  ["CCc1cc(N2C(=S)N(c3cnc(C#N)c(C(F)(F)F)c3)C(=O)C2(C)C)ccc1OCCC1CCN(CC(=O)Nc2cccc(NC3CCC(=O)NC3=O)c2)CC1 (stereo not shown)", "< 100 nM"]
]}

###

target: AR protein in VCaP cells (Homo sapiens); construct: endogenous in cells; host or cells: VCaP cells; assay: VCAP AR Degradation Assay (AR ELISA, 24 h); format: cell-based; details: concentration of compound when AR level = 50% of DMSO control, read-out: DC50

{"columns": ["molecule", "DC50"],
 "data": [
  ["CCc1cc(N2C(=S)N(c3ccc(C#N)c(C(F)(F)F)c3)C(=O)C2(C)C)ccc1OCC[C@H]1CCN(CC(=O)Nc2cc(NC3CCC(=O)NC3=O)ccc2F)[C@H](C)C1 (stereo partly drawn)", "100 to 500 nM"],
  ["CCc1cc(N2C(=S)N(c3cnc(C#N)c(C(F)(F)F)c3)C(=O)C2(C)C)ccc1OC1CCN(CC(=O)Nc2cc(Cl)cc(NC3CCC(=O)NC3=O)c2)CC1 (stereo not drawn)", "< 100 nM"],
  ["CCc1cc(N2C(=S)N(c3cnc(C#N)c(C(F)(F)F)c3)C(=O)C2(C)C)ccc1OCCC1(F)CCN(CC(=O)Nc2cccc(NC3CCC(=O)NC3=O)c2)CC1 (stereo not drawn)", "< 100 nM"]
]}
